# Test system: NCI-H23 lung
# ASSAY INFO: NCI tumour cell line growth inhibition, 48 h
Exercise: for every item that follows, state its recorded TGI.

Example entries begin here.
1) O=S(=O)(c1ccc(I)cc1)N(c1ccccc1)S(=O)(=O)C(F)(F)C(F)(F)C(F)(F)C(F)(F)F: > 100 µM
2) CC(=O)/C=C/c1ccc(C2CC(C)=Nc3c(ccc4c3C(=O)c3ccccc3C4=O)N2)cc1 (stereo unspecified): > 100 µM
3) COc1ccc(/C=C2/C[N+](C)(C)C/C(=C/c3ccc(OC)cc3)C2=O)cc1: > 100 µM
4) O=C(/C=C/c1ccc(O)cc1)NCCc1ccc(O)cc1: > 12.5 µM
5) CNC(=O)c1n[nH][nH]c1=O: > 100 µM

Alright, here's another compound for you.
INPUT: // lookup TGI for CC(=O)OCC1OC(n2c(=O)n(-c3ccccc3)c(=O)c3ccccc32)C(OC(C)=O)C(OC(C)=O)C1OC(C)=O (stereo unspecified)
OUTPUT: > 100 µM
